- Test system: HPV16-positive cells
- PROCEDURE TEXT: Cytotoxicity assay (VITAL FR / live-cell imaging-based) with peptide-specific CD8+ T cells
- Set-up: species or system human; key: +: cytotox: Ability of peptide-specific T cells to kill HPV16-positive cells.; +*: *highlights data from published resources.; *highlights data from published resources
- TEST CONTEXT: HLA restriction A02
Where a SMILES comes first, the peptide text is derived from it.
REPORTED PROPERTY: cytotox: Ability of peptide-specific T cells to kill HPV16-positive cells

| MOLECULE | RESULT |
| --- | --- |
| CSCC[C@H](NC(=O)[C@@H](N)Cc1ccc(O)cc1)C(=O)N[C@@H](CC(C)C)C(=O)N[C@@H](CC(=O)O)C(=O)N[C@@H](CC(C)C)C(=O)N[C@@H](CCC(N)=O)C(=O)N1CCC[C@H]1C(=O)N[C@@H](CCC(=O)O)C(=O)N[C@H](C(=O)N[C@H](C(=O)N[C@@H](CC(=O)O)C(=O)O)[C@@H](C)O)[C@@H](C)O [compound 15] | + |
| CC[C@H](C)[C@H](N)C(=O)N[C@@H](CCCNC(=N)N)C(=O)N[C@H](C(=O)N[C@@H](CC(C)C)C(=O)N[C@@H](CCC(=O)O)C(=O)N[C@@H](CC(=O)O)C(=O)N[C@@H](CC(C)C)C(=O)N[C@@H](CC(C)C)C(=O)N[C@@H](CCSC)C(=O)NCC(=O)N[C@H](C(=O)O)[C@@H](C)O)[C@@H](C)O [compound 52] (H-IRTLEDLLMGT-OH) | + |

----------
- Tested on: HPV16-positive cells
- PROCEDURE TEXT: Cytotoxicity assay (VITAL FR / live-cell imaging-based) with peptide-specific CD8+ T cells
- Set-up: species or system human; key: +: cytotox: Ability of peptide-specific T cells to kill HPV16-positive cells.; +*: *highlights data from published resources.; *highlights data from published resources
- TEST CONTEXT: HLA restriction A02
Where a SMILES comes first, the peptide text is derived from it.
REPORTED PROPERTY: cytotox: Ability of peptide-specific T cells to kill HPV16-positive cells

| COMPOUND | RESULT |
| --- | --- |
| CSCC[C@H](NC(=O)[C@H](CC(C)C)NC(=O)[C@H](CC(C)C)NC(=O)[C@H](CC(=O)O)NC(=O)[C@H](CCC(=O)O)NC(=O)[C@H](CC(C)C)NC(=O)[C@@H](NC(=O)[C@@H](N)CCCNC(=N)N)[C@@H](C)O)C(=O)NCC(=O)N[C@H](C(=O)N[C@@H](CC(C)C)C(=O)O)[C@@H](C)O [compound 19] (H-RTLEDLLMGTL-OH) | + |
| CC[C@H](C)[C@H](NC(=O)[C@@H]1CCCN1C(=O)[C@H](CS)NC(=O)[C@@H](NC(=O)[C@@H](NC(=O)CNC(=O)[C@H](CC(C)C)NC(=O)[C@@H](NC(=O)CNC(=O)[C@H](CCSC)NC(=O)[C@@H](N)CC(C)C)[C@@H](C)O)[C@@H](C)CC)C(C)C)C(=O)O [compound 25] (H-LMGTLGIVCPI-OH) | + |

----------
- System: HPV16-positive cells
- PROCEDURE TEXT: Cytotoxicity assay (VITAL FR / live-cell imaging-based) with peptide-specific CD8+ T cells
- Design: species or system human; key: +: cytotox: Ability of peptide-specific T cells to kill HPV16-positive cells.; +*: *highlights data from published resources.; *highlights data from published resources
- TEST CONTEXT: HLA restriction A02
Where a SMILES comes first, the peptide text is derived from it.
REPORTED PROPERTY: cytotox: Ability of peptide-specific T cells to kill HPV16-positive cells

| COMPOUND | RESULT |
| --- | --- |
| CC[C@H](C)[C@H](NC(=O)CNC(=O)[C@H](CC(C)C)NC(=O)[C@@H](NC(=O)CNC(=O)[C@H](CCSC)NC(=O)[C@H](CC(C)C)NC(=O)[C@H](CC(C)C)NC(=O)[C@H](CC(=O)O)NC(=O)[C@@H](N)CCC(=O)O)[C@@H](C)O)C(=O)N[C@H](C(=O)O)C(C)C [compound 21] (H-EDLLMGTLGIV-OH) | + |
| CSCC[C@H](N)C(=O)N[C@@H](CC(C)C)C(=O)N[C@@H](CC(=O)O)C(=O)N[C@@H](CC(C)C)C(=O)N[C@@H](CCC(N)=O)C(=O)N1CCC[C@H]1C(=O)N[C@@H](CCC(=O)O)C(=O)N[C@H](C(=O)O)[C@@H](C)O [compound 16] (H-MLDLQPET-OH) | + |
| CC(C)C[C@H](NC(=O)[C@@H](N)CCCNC(=N)N)C(=O)N[C@@H](CS)C(=O)N[C@H](C(=O)N[C@@H](CCC(N)=O)C(=O)N[C@@H](CO)C(=O)N[C@H](C(=O)N[C@@H](Cc1c[nH]cn1)C(=O)N[C@H](C(=O)O)C(C)C)[C@@H](C)O)C(C)C [compound 17] (H-RLCVQSTHV-OH) | + |

----------
- Test system: short-term antigen-specific T cell lines generated from PBMCs
- PROCEDURE TEXT: Interferon-γ ELISpot assay on short-term antigen-specific T cell lines
- Format: cell-based, human
- TEST CONTEXT: HLA restriction A24
REPORTED PROPERTY: ELISpot: Immungenicity of the peptide shown by IFN-gamma ELISPOT analysis

| SUBSTANCE | RESULT |
| --- | --- |
| 96 (AHYNIVTF; Human papillomavirus 16) [compound 96] | + |
| 88 (DRAHYNIVTF; Human papillomavirus 16) [compound 88] | + |
| 83 (TFCCKCDSTL; Human papillomavirus 16) [compound 83] | + |
